Provenance of the data: patent US5200409A

- Tested on: marine organisms
- Protocol summary: Marine antifouling rating of coated test panels exposed to the marine environment
- Test conditions: 6 weeks; topside, white background; scale 10 (completely free of growth) to 0 (completely covered)
Observable: Marine Antifouling Rating, 6 Week Test, Top Panel

- Smi: "N#CC(C#N)=C1Sc2nc3cc([N+](=O)[O-])c([N+](=O)[O-])cc3nc2S1"
  Experimental result: 5
- Smi: "Cc1ccc2nc3c(nc2c1)SC(C#N)=C(C#N)S3"
  Experimental result: 3
- Smi: "N#CC1=C(C#N)Sc2nc3ccccc3nc2S1"
  Experimental result: 9

* * *

- System: Aspergillus niger (An)
- Protocol summary: Minimum inhibitory concentration (MIC) in malt yeast agar
- Format: cell-based, Aspergillus niger ATCC 16404
- Test conditions: 72 h, read-out: Minimum Inhibitory Concentration, An
# MIC per record follows

- Smi: "N#CC(C#N)=C1Sc2nc3cc([N+](=O)[O-])c([N+](=O)[O-])cc3nc2S1"
  MIC / µg/mL: 2.5
- Smi: "N#CC1=C(C#N)Sc2nc3cc([N+](=O)[O-])c([N+](=O)[O-])cc3nc2S1"
  MIC / µg/mL: 25
- Smi: "N#CC(C#N)=C1Sc2nc3ccc([N+](=O)[O-])cc3nc2S1"
  MIC / µg/mL: 2.5
- Smi: "Cc1ccc2nc3c(nc2c1)SC(C#N)=C(C#N)S3"
  MIC / µg/mL: 50
